- Test system: human PBMCs
- testDetails: Human PBMC cytokine response assay (IFN-γ and IFN-α in cell-free medium by ELISA), with or without cPLGA
- Assay type: cell-based
- conditionSummary: Example 58; 20 ug/ml; donor 1
Strand notation (5' to 3'): a small letter for the sugar, then the base; units joined by * are phosphorothioate-linked, units joined directly phosphodiester-linked; [ ] holds rarer units or linkages, { } end groups; capitals alone tell only the bases. d = 2'-deoxy (DNA)
List of log10(IFN-α) values.
Transform log10 | Measure IFN-α | Unit pg/mL

Worked examples follow.
{"columns": ["substance", "measuredTarget", "log10(IFN-α)"],
 "data": [
  ["5′-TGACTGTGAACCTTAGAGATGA-3′ (SEQ ID NO: 3) (dT*dG*dA*dC*dT*dG*dT*dG*dA*dA*dC*dC*dT*dT*dA*dG*dA*dG*dA*dT*dG*dA) [Compound P-7, negative control, reference compound]", "human PBMCs", 1.72],
  ["(5′-TCGAACGTTCGA-3′ (SEQ ID NO: 155)-HEG)3-trebler-HEG-5′-T-3′ (three copies HEG-trebler branched, HEG-T, chemistry not fully specified) [Compound C-175]", "human PBMCs", 3.35],
  ["(5′-TCGAACGTTCGA-3′ (SEQ ID NO: 155)-HEG)2-glycerol-HEG-5′-TCGAACGTTCGA-3′ (SEQ ID NO: 155) (three copies via HEG-glycerol branching, chemistry not fully specified) [Compound C-173]", "human PBMCs", 4.16],
  ["(5′-TCGAACGTTCGA-3′ (SEQ ID NO: 155)-HEG)2-glycerol-HEG-3′-AGCTTGCAAGCT-5′ (SEQ ID NO: 155) (DNA, all phosphorothioate, methylation of C not given here; Three DNA copies joined by HEG spacers and glycerol branching, one copy inverted) [Compound C-174]", "human PBMCs", 3.13],
  ["(5′-TCGACGT-3′-HEG)2-glycerol-HEG-5′-TCGACGT-3′ [Compound C-101]", "human PBMCs", 3.37]
]}

## Task What log10(IFN-α) value was documented for this substance, 5′-TCGAACGTTCGA-3′ (SEQ ID NO: 155) (listed as DNA, chemistry not fully specified) [Compound P-17, reference compound] ?
## Result 3.01

## Task What log10(IFN-α) value was documented for this substance, (5′-TAGTCAT-3′-HEG)2-glycerol-HEG-5′-AACCTTC-3′ [Compound M-3, reference compound] ?
## Result 1.72
